Biological target: UniProt:P09884
Sequence (P09884 whole entry): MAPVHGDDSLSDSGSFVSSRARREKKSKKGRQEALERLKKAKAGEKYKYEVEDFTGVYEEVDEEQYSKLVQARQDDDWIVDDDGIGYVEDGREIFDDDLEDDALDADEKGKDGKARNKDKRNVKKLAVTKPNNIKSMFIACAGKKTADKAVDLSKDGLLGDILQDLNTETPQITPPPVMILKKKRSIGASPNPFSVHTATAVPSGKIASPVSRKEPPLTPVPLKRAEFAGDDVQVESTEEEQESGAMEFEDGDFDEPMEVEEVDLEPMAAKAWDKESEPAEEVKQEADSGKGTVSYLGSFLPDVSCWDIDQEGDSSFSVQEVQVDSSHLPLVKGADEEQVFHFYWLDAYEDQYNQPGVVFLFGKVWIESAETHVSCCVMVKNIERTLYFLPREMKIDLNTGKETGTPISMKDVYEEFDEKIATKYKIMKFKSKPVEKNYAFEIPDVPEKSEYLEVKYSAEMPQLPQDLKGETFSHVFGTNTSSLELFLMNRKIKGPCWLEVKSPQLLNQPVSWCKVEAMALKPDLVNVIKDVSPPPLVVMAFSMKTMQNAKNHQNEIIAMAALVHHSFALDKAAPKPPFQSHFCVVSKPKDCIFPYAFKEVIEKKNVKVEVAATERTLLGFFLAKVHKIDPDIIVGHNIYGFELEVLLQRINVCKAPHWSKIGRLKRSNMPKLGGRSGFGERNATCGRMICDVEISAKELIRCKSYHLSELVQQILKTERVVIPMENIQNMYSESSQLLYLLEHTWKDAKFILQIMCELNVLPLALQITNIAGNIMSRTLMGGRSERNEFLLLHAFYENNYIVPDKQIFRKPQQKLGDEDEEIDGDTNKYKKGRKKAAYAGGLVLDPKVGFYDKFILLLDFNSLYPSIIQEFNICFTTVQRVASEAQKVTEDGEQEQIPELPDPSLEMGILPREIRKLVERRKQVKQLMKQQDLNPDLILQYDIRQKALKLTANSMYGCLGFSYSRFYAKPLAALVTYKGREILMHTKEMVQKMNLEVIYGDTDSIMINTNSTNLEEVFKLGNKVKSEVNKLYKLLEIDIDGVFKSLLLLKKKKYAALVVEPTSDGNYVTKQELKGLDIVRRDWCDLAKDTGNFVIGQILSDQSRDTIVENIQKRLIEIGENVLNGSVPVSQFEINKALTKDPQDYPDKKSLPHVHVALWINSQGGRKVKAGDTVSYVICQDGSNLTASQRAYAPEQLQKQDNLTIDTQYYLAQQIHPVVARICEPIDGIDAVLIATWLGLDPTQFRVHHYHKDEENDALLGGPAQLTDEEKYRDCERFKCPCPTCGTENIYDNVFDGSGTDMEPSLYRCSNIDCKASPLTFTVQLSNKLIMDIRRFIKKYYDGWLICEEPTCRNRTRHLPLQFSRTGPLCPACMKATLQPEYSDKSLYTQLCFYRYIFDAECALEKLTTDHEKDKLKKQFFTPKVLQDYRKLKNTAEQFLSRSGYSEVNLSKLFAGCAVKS
pIC50: −log10 of the molar value.
measured.parameter: pIC50

Reported pIC50 for Cc1cccc(N(C)C(=O)[C@@H]2[C@H](O)CCN2c2nc(C)cc(C(F)(F)F)c2C#N)c1 [ART558] : what is it? < 4.00

* * *

Molecular target: DNA polymerase Polθ (Homo sapiens, UniProt O75417)
Construct: full-length (residues 2–2590)
Sequence (O75417 2-2590): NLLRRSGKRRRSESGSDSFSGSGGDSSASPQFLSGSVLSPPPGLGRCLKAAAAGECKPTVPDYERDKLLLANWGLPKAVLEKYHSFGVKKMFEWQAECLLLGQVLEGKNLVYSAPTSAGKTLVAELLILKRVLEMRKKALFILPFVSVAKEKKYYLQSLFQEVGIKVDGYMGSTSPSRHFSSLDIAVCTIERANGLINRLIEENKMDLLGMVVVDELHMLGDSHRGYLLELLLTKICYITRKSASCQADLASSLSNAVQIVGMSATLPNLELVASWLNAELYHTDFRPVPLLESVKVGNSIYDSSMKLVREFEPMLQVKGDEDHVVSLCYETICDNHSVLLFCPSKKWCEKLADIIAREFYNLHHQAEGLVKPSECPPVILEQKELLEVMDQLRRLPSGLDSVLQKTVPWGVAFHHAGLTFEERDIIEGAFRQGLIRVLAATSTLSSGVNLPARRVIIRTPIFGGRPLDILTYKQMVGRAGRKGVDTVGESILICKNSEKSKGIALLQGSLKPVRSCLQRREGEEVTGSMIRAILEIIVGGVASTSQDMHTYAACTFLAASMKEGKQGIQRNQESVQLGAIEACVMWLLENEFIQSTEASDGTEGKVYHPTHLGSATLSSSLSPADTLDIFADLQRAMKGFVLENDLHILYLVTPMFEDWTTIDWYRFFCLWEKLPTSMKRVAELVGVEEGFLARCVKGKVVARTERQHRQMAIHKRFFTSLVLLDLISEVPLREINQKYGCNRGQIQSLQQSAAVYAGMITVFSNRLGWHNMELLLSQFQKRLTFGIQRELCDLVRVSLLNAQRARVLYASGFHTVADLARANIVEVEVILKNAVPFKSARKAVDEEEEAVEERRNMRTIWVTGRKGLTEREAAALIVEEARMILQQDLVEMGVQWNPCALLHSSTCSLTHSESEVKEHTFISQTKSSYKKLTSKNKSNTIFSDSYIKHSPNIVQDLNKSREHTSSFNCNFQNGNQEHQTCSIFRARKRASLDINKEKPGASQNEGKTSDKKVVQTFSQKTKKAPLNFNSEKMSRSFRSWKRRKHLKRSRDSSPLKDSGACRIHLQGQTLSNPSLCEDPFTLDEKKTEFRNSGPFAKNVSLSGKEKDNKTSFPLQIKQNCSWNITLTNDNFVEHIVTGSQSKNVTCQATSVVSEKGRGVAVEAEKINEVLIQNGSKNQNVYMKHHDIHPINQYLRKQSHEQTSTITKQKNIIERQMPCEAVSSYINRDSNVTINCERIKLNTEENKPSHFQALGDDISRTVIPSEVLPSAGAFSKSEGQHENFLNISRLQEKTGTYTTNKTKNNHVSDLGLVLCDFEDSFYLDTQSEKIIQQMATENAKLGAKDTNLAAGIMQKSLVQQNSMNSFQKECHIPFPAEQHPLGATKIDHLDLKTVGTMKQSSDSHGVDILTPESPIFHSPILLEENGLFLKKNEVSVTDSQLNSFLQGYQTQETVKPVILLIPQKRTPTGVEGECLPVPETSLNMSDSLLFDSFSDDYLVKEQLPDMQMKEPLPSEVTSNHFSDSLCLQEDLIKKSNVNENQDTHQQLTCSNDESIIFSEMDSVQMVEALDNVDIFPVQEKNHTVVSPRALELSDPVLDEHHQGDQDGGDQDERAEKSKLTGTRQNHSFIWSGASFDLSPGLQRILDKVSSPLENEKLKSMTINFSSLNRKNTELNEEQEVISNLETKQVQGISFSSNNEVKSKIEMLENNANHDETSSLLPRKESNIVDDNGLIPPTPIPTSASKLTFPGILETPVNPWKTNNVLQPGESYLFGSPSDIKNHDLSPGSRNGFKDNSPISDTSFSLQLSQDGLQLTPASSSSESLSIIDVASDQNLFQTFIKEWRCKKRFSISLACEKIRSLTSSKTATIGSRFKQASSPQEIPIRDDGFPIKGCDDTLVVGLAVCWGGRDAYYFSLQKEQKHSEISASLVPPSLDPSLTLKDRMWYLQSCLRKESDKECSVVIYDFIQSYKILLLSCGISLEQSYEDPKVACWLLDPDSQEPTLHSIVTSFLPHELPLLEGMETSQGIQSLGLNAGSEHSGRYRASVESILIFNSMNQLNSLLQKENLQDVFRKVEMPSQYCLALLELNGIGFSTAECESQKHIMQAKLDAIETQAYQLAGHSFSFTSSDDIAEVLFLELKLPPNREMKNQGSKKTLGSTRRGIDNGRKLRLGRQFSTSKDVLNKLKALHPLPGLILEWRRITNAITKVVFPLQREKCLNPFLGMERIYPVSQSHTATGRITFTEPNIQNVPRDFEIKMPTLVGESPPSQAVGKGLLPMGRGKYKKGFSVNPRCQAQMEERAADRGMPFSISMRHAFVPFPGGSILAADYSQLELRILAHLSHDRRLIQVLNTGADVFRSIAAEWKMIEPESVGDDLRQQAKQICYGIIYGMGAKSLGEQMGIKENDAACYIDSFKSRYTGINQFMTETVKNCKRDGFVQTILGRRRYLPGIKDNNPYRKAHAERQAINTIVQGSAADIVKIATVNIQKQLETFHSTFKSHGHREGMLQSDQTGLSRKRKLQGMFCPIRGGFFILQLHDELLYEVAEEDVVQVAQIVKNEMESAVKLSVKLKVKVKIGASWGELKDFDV
Assay: PicoGreen DNA primer extension assay with recombinant full-length enzyme; supported by DNA-dependent DSF stabilisation and mechanism-of-action kinetics
measured.parameter: pIC50
pIC50 is defined as minus the log10 of a concentration measured in mol/L.

Reported pIC50 for Cc1cccc(N(C)C(=O)[C@@H]2[C@H](O)CCN2c2nc(C)cc(C(F)(F)F)c2C#N)c1 [ART558] : what is it? 8.10
